TESTED_SYSTEM: Melanocortin receptor 5 (Homo sapiens, UniProt P33032)
Sequence (P33032 whole entry): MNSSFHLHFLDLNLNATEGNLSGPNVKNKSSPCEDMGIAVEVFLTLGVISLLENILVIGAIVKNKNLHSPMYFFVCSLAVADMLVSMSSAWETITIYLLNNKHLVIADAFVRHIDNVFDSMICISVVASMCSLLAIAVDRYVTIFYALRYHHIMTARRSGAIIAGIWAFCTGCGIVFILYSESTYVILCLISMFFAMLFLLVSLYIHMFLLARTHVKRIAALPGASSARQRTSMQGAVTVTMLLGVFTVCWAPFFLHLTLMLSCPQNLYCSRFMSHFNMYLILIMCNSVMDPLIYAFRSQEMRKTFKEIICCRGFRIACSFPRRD
READOUT_KIND: pIC50
Just the number, please; pIC50 means minus log10 of the concentration in mol/L.

Query :: Give recorded pIC50 with Melanocortin receptor 5 (Homo sapiens, UniProt P33032) for the following molecule: `CCCC(=O)N[C@@H](Cc1cnc[nH]1)C(=O)N[C@H](Cc1ccccc1)C(=O)N[C@@H](CCCNC(=N)N)C(=O)N[C@@H](Cc1c[nH]c2ccccc12)C(=O)NCC(N)=O`
Result :: 4.88

====

Entries and their measured EC50 follow.
TESTED_SYSTEM: Melanocyte-stimulating hormone receptor (Homo sapiens)
Sequence (Q01726 whole entry): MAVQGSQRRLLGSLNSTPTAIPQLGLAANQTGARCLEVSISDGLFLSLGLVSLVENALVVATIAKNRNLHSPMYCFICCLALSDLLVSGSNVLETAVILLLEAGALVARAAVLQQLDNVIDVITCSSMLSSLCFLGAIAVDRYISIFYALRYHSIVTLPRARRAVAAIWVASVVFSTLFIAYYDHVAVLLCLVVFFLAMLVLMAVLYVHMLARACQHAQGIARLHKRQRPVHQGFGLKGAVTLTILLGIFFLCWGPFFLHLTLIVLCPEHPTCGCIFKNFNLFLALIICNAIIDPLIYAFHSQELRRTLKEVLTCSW
EXPERIMENTAL_PROTOCOL: Agonist activity against human melanocortin receptor hMC1R
Assay type: functional
Enter your answer as a number in nM; do not include the unit.

COMPOUND	EC50 [nM]
CCCCC(=O)N[C@]1(C(=O)N[C@H](Cc2ccccc2)C(=O)N[C@@H](CCCN=C(N)N)C(=O)N[C@@H](Cc2c[nH]c3ccccc23)C(=O)NCC(N)=O)CCc2ccccc2C1 (stereo in doubt; form 1)	830

Query :: Give recorded EC50 with Melanocyte-stimulating hormone receptor (Homo sapiens) for the following compound: CCCCC(=O)NC1(C(=O)NC(Cc2ccccc2)C(=O)N[C@@H](CCCNC(=N)N)C(=O)N[C@@H](Cc2c[nH]c3ccccc23)C(=O)NCC(N)=O)CCc2c(cccc2OC)C1 (single isomer, unassigned)
Result :: 1480

Query :: Give recorded EC50 with Melanocyte-stimulating hormone receptor (Homo sapiens) for the following compound: CCCCC(=O)NC1(C(=O)NC(Cc2ccccc2)C(=O)N[C@@H](CCCNC(=N)N)C(=O)N[C@@H](Cc2c[nH]c3ccccc23)C(=O)NCC(N)=O)CCc2c(C)cccc2C1 (single isomer, unassigned)
Result :: 1220
